# credit: paper PMC10349804

system: endometriotic epithelial 12Z cells; assay: MTT reduction assay, cell viability; assay type: cell-based, human; conditions: Homo sapiens, 12Z cells, 48-h incubation
Value Type: pIC50
Please report pIC50 as the negative decimal logarithm of the molar concentration, giving only the number.

In [3]: df
Out[3]:
                                   compound  value_type  result
0  COc1cc(C=Cc2ccc(O)cc2)cc(OC)c1 [Pterostilbene, 3,5-dimethoxy-4′-hydroxystilbene]       pIC50    4.13
1  Oc1cc(O)cc(C=Cc2ccc(O)c(O)c2)c1 [Piceatannol, 3,3′,4,5′-tetrahydroxystilbene]       pIC50    3.65
2  Oc1ccc(/C=C/c2cc(O)cc(O)c2)cc1 [Resveratrol]       pIC50    4.31

**Query** Quickly give me recorded pIC50 for OC[C@H]1O[C@@H](Oc2cc(O)cc(/C=C/c3ccc(O)cc3)c2)[C@H](O)[C@@H](O)[C@@H]1O [Polydatin]
**Result** 3.61
